Every entry's value here was drawn from patent US20100075965A1.

Reported pEC50 values follow for various compounds
Test system: A2780 cells
experimentalDetails: Viability assay in A2780 (Cell Titer Glo)
Format: cell-based, human
testConditions: Homo sapiens; A2780 cells; read-out: A2780 Cell prolif. EC50
pEC50: −log10 of the molar value.

compound=CCC(=O)Nc1cn2nc(-c3cnc(N)c(C(F)(F)F)c3)ccc2n1 testresult="> 6.00"

So what's the measured pEC50 for this one? CN(CC(=O)Nc1cn2cc(-c3cnc(N)c(C(F)(F)F)c3)ccc2n1)C(=O)OC(C)(C)C
> 5.00

Likewise for Nc1ncc(-c2ccc3nc(NC(=O)CO[C@@H]4CCNC4)cn3c2)cc1C(F)(F)F ?
> 5.00

And what about the compound CC(=O)Nc1cn2cc(-c3cnc(N)c(C=O)c3)ccc2n1 ?
> 5.00

Entry CC(C)(C)OC(=O)NCC(=O)Nc1cn2nc(-c3cnc(N)c(C(F)(F)F)c3)ccc2n1 please
> 5.00

Let us now turn to CCOc1nc(-c2ccc3nc(NC(C)=O)cn3n2)cnc1N
> 5.00

Ok, now CC(=O)Nc1cn2cc(-c3cnc(N)cc3F)ccc2n1
> 4.60

# iterate: CC(C)(C)OC(=O)N1CCC(OCC(=O)Nc2cn3cc(-c4cnc(N)c(C(F)(F)F)c4)ccc3n2)CC1
> 5.00

Again, but for N#Cc1ccc(C(=O)Nc2cn3cc(-c4cnc(N)c(C(F)(F)F)c4)ccc3n2)cc1
> 4.60

Same read-out for Nc1ncc(-c2ccc3nc(NC(=O)N4CCCC4c4ccccn4)cn3c2)cc1C(F)(F)F (centres unmarked) ?
> 4.60

// next record CC(=O)Nc1cn2nc(-c3cnc(N)c(-c4ccn(C)n4)c3)ccc2n1
> 6.00

---

System: A2780 cells
experimentalDetails: Viability assay in A2780 (Cell Titer Glo)
Assay type: cell-based, human
testConditions: Homo sapiens; A2780 cells; read-out: A2780 Cell prolif. EC50
pEC50: −log10 of the molar value.
resultType: pEC50

compound=CC(=O)Nc1nc2ccc(-c3cnc(N)c(C(F)(F)F)c3)cn2c1C#CCNC(=O)OC(C)(C)C testresult="> 5.00"
compound=NC(=O)[C@@H]1CCCN1C(=O)Nc1cn2cc(-c3cnc(N)c(C(F)(F)F)c3)ccc2n1 testresult="> 5.00"
compound=COC[C@@H]1CCCN1C(=O)Nc1cn2cc(-c3cnc(N)c(C(F)(F)F)c3)ccc2n1 testresult="> 4.60"
compound=Nc1ncc(-c2ccc3nc(NC(=O)c4cccc(Cl)c4)cn3c2)cc1C(F)(F)F testresult="> 5.00"
compound=CN(CC(=O)Nc1cn2nc(-c3cnc(N)c(C(F)(F)F)c3)ccc2n1)C(=O)OC(C)(C)C testresult="> 5.00"
compound=CCN1CC[C@@H](OCC(=O)Nc2cn3cc(-c4cnc(N)c(C(F)(F)F)c4)ccc3n2)C1 testresult="> 5.00"
compound=CC(=O)Nc1cn2cc(-c3ccc(N)nc3)ccc2n1 testresult="> 5.00"
compound=COCCCOc1nc(-c2ccc3nc(NC(C)=O)cn3c2)cnc1N testresult="> 6.00"
compound=CC(=O)Nc1cn2cc(-c3cnc(N)c(-c4ccc(F)cc4)c3)ccc2n1 testresult="> 4.60"
compound="CCN1CCCCC1CCC(=O)Nc1cn2nc(-c3cnc(N)c(C(F)(F)F)c3)ccc2n1 (stereo not drawn)" testresult="> 6.00"

Value lookup for pEC50; key = CCN/N=C/c1cc(-c2ccc3nc(NC(C)=O)cn3c2)cnc1N
> 5.00

Now consider CC(=O)Nc1cn2nc(-c3cnc(N)c(-c4ccccc4)c3)ccc2n1 and answer again.
> 6.00
